# experimental system: Melanocortin receptor 5 (Homo sapiens); further: in other assays of this panel Not Active means under 50% inhibition at 10 µM
# Sequence (P33032 whole entry): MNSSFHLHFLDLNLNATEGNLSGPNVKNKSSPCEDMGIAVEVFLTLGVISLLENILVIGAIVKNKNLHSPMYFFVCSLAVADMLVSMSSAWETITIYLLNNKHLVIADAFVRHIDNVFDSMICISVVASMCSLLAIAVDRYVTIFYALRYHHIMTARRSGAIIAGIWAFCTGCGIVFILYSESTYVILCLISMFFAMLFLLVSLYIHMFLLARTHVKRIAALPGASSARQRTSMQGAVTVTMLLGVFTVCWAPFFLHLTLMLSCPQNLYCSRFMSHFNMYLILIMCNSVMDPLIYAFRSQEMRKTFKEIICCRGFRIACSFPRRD
# Format: cell membranes, HEK293, Membrane
# condition parameters: hek293
parameter measured: Ki

Worked examples, 4 substances total:
| substance | Ki |
| --- | --- |
| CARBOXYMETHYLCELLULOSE | Not Active |
| COPPER(II) OXIDE | Not Active |
| CHROMIC CHLORIDE | Not Active |
| POVIDONE | Not Active |

Now consider a different substance.
-- ask Data request, read-out Ki, for LEAD(IV) ACETATE
-- reply Not Active

====

# experimental system: Alpha-2C adrenergic receptor (Homo sapiens, UniProt P18825)
# Sequence (P18825 whole entry): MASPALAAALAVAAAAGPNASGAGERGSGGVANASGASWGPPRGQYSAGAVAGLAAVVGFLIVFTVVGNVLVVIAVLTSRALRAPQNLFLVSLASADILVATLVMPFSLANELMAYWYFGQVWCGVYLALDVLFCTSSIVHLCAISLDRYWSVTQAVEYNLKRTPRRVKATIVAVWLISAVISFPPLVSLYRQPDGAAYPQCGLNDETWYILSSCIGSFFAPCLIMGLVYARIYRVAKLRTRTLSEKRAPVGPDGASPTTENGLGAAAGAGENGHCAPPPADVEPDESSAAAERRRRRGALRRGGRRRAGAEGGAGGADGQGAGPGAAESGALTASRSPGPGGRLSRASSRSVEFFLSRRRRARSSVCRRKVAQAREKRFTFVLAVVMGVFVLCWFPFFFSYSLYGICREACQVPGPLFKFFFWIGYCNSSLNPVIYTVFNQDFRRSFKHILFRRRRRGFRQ
# test: DRUGMATRIX: Adrenergic Alpha-2C radioligand binding (ligand: [3H] MK-912)
# Format: cell membranes, Sf9, Membrane
# condition parameters: sf9
parameter measured: IC50

Consider the following illustrative entries.
| substance | experimental system | obs value |
| --- | --- | --- |
| POVIDONE | Alpha-2C adrenergic receptor (Homo sapiens, UniProt P18825) | Not Active |
| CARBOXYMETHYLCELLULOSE | Alpha-2C adrenergic receptor (Homo sapiens, UniProt P18825) | Not Active |
| CHROMIC CHLORIDE | Alpha-2C adrenergic receptor (Homo sapiens, UniProt P18825) | Not Active |
| COPPER(II) OXIDE | Alpha-2C adrenergic receptor (Homo sapiens, UniProt P18825) | Not Active |

Next item in the queue.
-- ask Entry LEAD(IV) ACETATE : reported IC50 = ?
-- reply Not Active

====

# experimental system: D(4) dopamine receptor (Homo sapiens)
# Sequence (P21917 whole entry): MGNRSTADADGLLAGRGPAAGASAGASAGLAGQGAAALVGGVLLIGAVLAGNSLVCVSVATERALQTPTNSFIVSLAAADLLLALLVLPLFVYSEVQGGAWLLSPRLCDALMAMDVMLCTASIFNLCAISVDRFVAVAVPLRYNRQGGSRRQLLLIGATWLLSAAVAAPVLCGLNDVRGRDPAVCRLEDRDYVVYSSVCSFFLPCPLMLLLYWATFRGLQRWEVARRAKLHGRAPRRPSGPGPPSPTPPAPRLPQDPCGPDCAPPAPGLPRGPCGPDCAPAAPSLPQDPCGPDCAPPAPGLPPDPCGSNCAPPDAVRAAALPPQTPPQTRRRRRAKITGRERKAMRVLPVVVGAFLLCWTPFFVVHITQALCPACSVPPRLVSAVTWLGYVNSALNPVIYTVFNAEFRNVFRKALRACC
# test: DRUGMATRIX: Dopamine D4.2 radioligand binding (ligand: [3H] Spiperone)
# Format: cell membranes, CHO-K1, Membrane
# condition parameters: cho-k1; Not Active = under 50% inhibition at 10 µM
parameter measured: IC50

| compound | experimental system | parameter measured | obs value |
| --- | --- | --- | --- |
| Nc1nc(N)c2nc(CNc3ccc(C(=O)N[C@@H](CCC(=O)O)C(=O)O)cc3)cnc2n1 | D(4) dopamine receptor (Homo sapiens) | IC50 | Not Active |
| C#C[C@]1(O)CC[C@H]2[C@@H]3[C@H](C)CC4=C(CCC(=O)C4)[C@H]3CC[C@@]21C | D(4) dopamine receptor (Homo sapiens) | IC50 | Not Active |
| CCN1CCN(C(=O)N[C@@H](C(=O)N[C@@H]2C(=O)N3[C@@H]2SC(C)(C)[C@@H]3C(=O)O)c2ccccc2)C(=O)C1=O | D(4) dopamine receptor (Homo sapiens) | IC50 | Not Active |
| NS(=O)(=O)c1cc(C(=O)O)c(NCc2ccco2)cc1Cl [FUROSEMIDE] | D(4) dopamine receptor (Homo sapiens) | IC50 | Not Active |
